Target: human recombinant TRPV1 (Homo sapiens, UniProt Q8NER1)
Sequence (Q8NER1 whole entry): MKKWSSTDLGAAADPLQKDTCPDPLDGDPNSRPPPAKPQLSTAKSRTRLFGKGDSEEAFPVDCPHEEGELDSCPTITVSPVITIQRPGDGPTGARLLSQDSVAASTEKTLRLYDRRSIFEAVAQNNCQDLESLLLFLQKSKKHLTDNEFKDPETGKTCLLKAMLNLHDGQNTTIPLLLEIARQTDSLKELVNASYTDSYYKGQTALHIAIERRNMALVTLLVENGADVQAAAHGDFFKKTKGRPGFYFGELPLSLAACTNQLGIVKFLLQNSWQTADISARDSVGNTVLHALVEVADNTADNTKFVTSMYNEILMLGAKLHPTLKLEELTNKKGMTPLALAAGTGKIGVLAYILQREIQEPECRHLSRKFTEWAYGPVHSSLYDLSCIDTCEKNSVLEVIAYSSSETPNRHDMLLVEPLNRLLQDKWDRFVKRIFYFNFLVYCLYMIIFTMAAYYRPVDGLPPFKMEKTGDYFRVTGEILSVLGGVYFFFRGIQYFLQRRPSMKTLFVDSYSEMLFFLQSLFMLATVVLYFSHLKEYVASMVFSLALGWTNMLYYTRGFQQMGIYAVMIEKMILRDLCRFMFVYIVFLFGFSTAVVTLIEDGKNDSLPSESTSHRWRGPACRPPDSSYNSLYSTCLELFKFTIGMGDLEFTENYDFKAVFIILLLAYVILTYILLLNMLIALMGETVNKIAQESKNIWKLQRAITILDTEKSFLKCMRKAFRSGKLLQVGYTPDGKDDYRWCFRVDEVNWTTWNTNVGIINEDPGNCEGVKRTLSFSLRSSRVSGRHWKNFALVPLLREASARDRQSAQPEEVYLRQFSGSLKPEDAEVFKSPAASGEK
Experiment: TRPV1-mediated intracellular calcium elevation
Settings: assayed using 100 nM capsaicin; mean ± SD; read-out: Desensibilization (IC50)
pIC50: −log10 of the molar value.
Attribute: pIC50

Compound | pIC50
CCCCC/C=C\C/C=C\CCCCCCCC(=O)OCC(O)CO (stereo not drawn) | 5.57
CCCCC[C@H](O)/C=C/C=C\CCCCCCCC(=O)OCC(O)CO (stereo partly drawn) [13-HODE-G, 13-hydroxy-octodecadienoyl-glycerol] | < 4.30
CCCCC[C@H](O)/C=C/C=C\CCCCCCCC(=O)O [13-HODE, 13(S)-hydroxy-octodecadienoic acid] | < 4.30

====

Molecular target: human recombinant TRPV1 (Homo sapiens, UniProt Q8NER1)
Test: TRPV1-mediated intracellular calcium elevation
Details: intracellular calcium elevation; mean ± SD; read-out: Potency (EC50)
Observation type: EC50

Molecule | Experimental system | Observation type | Value
CCCCC/C=C\C/C=C\CCCCCCCC(=O)OCC(O)CO (stereo not shown) | human recombinant TRPV1 (Homo sapiens, UniProt Q8NER1) | EC50 | 230 nM

====

Target: human recombinant CB1 receptor (Homo sapiens)
Sequence (P21554 whole entry): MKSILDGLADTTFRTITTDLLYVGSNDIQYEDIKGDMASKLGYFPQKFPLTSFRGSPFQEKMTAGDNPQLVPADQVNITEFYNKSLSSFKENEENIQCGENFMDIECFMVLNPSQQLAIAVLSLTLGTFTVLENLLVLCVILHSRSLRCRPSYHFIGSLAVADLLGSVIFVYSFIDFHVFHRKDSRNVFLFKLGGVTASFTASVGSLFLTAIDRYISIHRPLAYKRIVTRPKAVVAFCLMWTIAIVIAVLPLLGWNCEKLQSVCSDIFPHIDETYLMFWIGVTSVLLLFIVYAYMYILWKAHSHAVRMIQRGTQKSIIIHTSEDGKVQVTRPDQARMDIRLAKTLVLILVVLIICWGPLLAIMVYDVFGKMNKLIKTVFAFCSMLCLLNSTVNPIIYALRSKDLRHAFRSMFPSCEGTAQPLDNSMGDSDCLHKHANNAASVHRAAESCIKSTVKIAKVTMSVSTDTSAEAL
Assay: CB1 receptor binding assay
Details: mean ± SD
Observation type: IC50

Compound | Observation type | Value
CCCCC/C=C\C/C=C\CCCCCCCC(=O)OCC(O)CO (stereo not drawn) | IC50 | 2.81 µM
CCCCC[C@H](O)/C=C/C=C\CCCCCCCC(=O)O [13-HODE, 13(S)-hydroxy-octodecadienoic acid] | IC50 | > 10 µM
CCCCC[C@H](O)/C=C/C=C\CCCCCCCC(=O)OCC(O)CO (stereo partly drawn) [13-HODE-G, 13-hydroxy-octodecadienoyl-glycerol] | IC50 | > 10 µM

====

Attribute: pKi
Molecular target: human recombinant CB1 receptor (Homo sapiens)
Experiment: CB1 receptor binding assay
Conditions: mean ± SD
pKi: −log10 of the molar value.

Compound | pKi
CCCCC[C@H](O)/C=C/C=C\CCCCCCCC(=O)OCC(O)CO (stereo partly drawn) [13-HODE-G, 13-hydroxy-octodecadienoyl-glycerol] | < 5.00
CCCCC/C=C\C/C=C\CCCCCCCC(=O)OCC(O)CO (stereo not drawn) [1-LG, 1-linoleoyl-glycerol] | 6.51
CCCCC[C@H](O)/C=C/C=C\CCCCCCCC(=O)O [13-HODE, 13(S)-hydroxy-octodecadienoic acid] | < 5.00

====

Target: human recombinant CB2 receptor (Homo sapiens, UniProt P34972)
Sequence (P34972 whole entry): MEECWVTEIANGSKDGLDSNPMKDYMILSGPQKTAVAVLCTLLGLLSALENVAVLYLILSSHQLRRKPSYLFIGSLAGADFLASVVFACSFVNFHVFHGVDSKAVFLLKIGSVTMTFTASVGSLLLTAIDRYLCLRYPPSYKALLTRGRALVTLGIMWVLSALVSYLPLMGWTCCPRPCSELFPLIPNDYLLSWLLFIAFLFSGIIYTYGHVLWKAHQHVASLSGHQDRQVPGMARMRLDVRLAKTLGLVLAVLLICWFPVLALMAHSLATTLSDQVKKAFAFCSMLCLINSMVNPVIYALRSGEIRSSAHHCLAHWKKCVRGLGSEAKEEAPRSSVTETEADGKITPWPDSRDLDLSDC
Assay: CB2 receptor binding assay
Conditions: mean ± SD
pKi: −log10 of the molar value.
Observation type: pKi

Molecule | Experimental system | Observation type | Value
CCCCC/C=C\C/C=C\CCCCCCCC(=O)OCC(O)CO (stereo not drawn) [1-LG, 1-linoleoyl-glycerol] | human recombinant CB2 receptor (Homo sapiens, UniProt P34972) | pKi | < 5.00
CCCCC[C@H](O)/C=C/C=C\CCCCCCCC(=O)OCC(O)CO (stereo partly drawn) [13-HODE-G, 13-hydroxy-octodecadienoyl-glycerol] | human recombinant CB2 receptor (Homo sapiens, UniProt P34972) | pKi | < 5.00
CCCCC[C@H](O)/C=C/C=C\CCCCCCCC(=O)O [13-HODE, 13(S)-hydroxy-octodecadienoic acid] | human recombinant CB2 receptor (Homo sapiens, UniProt P34972) | pKi | < 5.00
